Where do these numbers come from? They come from patent US8987500B2.

tested on: monocotyledonous and dicotyledonous weed and crop plants; assay: Herbicidal post-emergence action, Example J; assay type: in vivo; details: Greenhouse, 320 g a.i./ha, Avena fatua, about 3 weeks
Measured Endpoint: herbicidal effect in percent, Avena fatua (%)
Numbers only, in %.

1) CCOC(=O)Oc1c(-c2cc(-c3ccc(C(F)(F)F)cc3)ccc2C)c(=O)n2n1CCCC2	70

Your task in this section: give herbicidal effect in percent, Avena fatua for each listed record.
1. CCOC(=O)Oc1c(-c2cc(-c3ccc(F)cc3)ccc2C)c(=O)n2n1CCCC2
2. Cc1ccc(-c2cc(Cl)ccc2Cl)cc1-c1c(O)n2n(c1=O)CCCC2

Data returned:
90
80

Data request: Which value of herbicidal effect in percent, Avena fatua has been reported for Cc1ccc(-c2ccc(C(F)(F)F)cc2)cc1-c1c(OC(=O)C(C)(C)C)n2n(c1=O)CCCC2 in the records?
Data returned: 80
